- Experiment description: Cytotoxicity in K562 cells
- Format: cell-based
- Measurement setup: human
Quantity: IC50

Problem: Requested field: IC50. Item: O=C(/C=C/c1ccccc1)Nc1ccc(C(=O)Nc2nccs2)cc1 [compound 70]
Result: > 367 µM

Problem: Given the entry CC12CC3(C)CC(C(=O)O)(C1)CC(C(=O)O)(C2)C3 [compound 73, CC12CC3(C)CC(C1)(CC(C2)(C3)C(O)=O)C(O)=O] , report its measured IC50.
Result: > 508 µM

Problem: # query: IC50 of entry CCOc1ccc2nc(NC(=O)c3ccc4ncsc4c3)sc2c1 [compound 74, CCOc4ccc3N=C(NC(=O)c2ccc1N=CSc1c2)Sc3c4]
Result: > 361 µM

Problem: Could you share which IC50 value was measured for CCOC(=O)c1ccc2nc(NC(=O)c3cccs3)sc2c1 [compound 64, CCOC(=O)c3ccc2N=C(NC(=O)C1=CC=CS1)Sc2c3] ?
Result: > 386 µM
